The values you see were collected from the supplement of paper PMC11061612.

Test system: SKN-3 (Head and Neck Carcinoma)
METHOD_DESCRIPTION: combination Emax (second highest fraction inhibited in the dose matrix, 72 h); higher = more inhibition; extreme values may be limits of the assay
MEASURED_PROPERTY: combination Emax
Respond numerically, and do not add a unit to the figure.

stdin: I'm curious: which combination Emax was measured for Cc1c2c(nn1C)CSCc1cc(n(C)n1)CSc1cc(c3ccccc3c1)OCCCc1c(C(=O)O)n(C)c3c-2c(Cl)ccc13 [AZD5991] + CC1(C)CCC(CN2CCN(c3ccc(C(=O)NS(=O)(=O)c4ccc(NCC5CCOCC5)c([N+](=O)[O-])c4)c(Oc4cnc5[nH]ccc5c4)c3)CC2)=C(c2ccc(Cl)cc2)C1 [Venetoclax] (first compound max 1 µM, 7x7, partner max 1 µM) tested on SKN-3 (Head and Neck Carcinoma)?
stdout: 0.15

stdin: Please state recorded combination Emax (tested on SKN-3 (Head and Neck Carcinoma)) of CN(CCO)CC[C@H](CSc1ccccc1)Nc1ccc(S(=O)(=O)NC(=O)c2ccc(N3CCC([C@@H](O)c4ccccc4-c4ccc(Cl)cc4)CC3)cc2)cc1S(=O)(=O)C(F)(F)F [AZD4320] + C1CN(CCC1(C(=O)N[C@@H](CCO)C2=CC=C(C=C2)Cl)N)C3=NC=NC4=C3C=CN4 [Capivasertib] (first compound max 1 µM, 7x7, partner max 3 µM)
stdout: 0.062

stdin: Lookup: combination Emax / SKN-3 (Head and Neck Carcinoma) / C=CCn1c(=O)c2cnc(Nc3ccc(N4CCN(C)CC4)cc3)nc2n1-c1cccc(C(C)(C)O)n1 [AZD1775] + C[C@@H]1COCCN1C2=NC(=NC(=C2)C3(CC3)[S@](=N)(=O)C)C4=C5C=CNC5=NC=C4 [AZD6738] (first compound max 1 µM, partner max 10 µM)
stdout: 0.648

---

Tested on: HCT-116 (Colorectal Carcinoma)
METHOD_DESCRIPTION: combination Emax (second highest fraction inhibited in the dose matrix, 72 h); higher = more inhibition; extreme values may be limits of the assay
Give measured combination Emax for each item. Keep answers brief.

stdin: Tell me the measured combination Emax of NC1(C(=O)N[C@@H](CCO)c2ccc(Cl)cc2)CCN(c2ncnc3[nH]ccc23)CC1 [Capivasertib] + CCN(CCO)CCCOc1ccc2c(Nc3cc(CC(=O)Nc4cccc(F)c4)[nH]n3)ncnc2c1 [AZD2811] (first compound max 10 µM, 7x7, partner max 1 µM) , please.
stdout: 0.587

stdin: I have this compound here, CN(CCO)CC[C@H](CSc1ccccc1)Nc1ccc(S(=O)(=O)NC(=O)c2ccc(N3CCC([C@@H](O)c4ccccc4-c4ccc(Cl)cc4)CC3)cc2)cc1S(=O)(=O)C(F)(F)F [AZD4320] + Cc1cc2ncnn2cc1Nc1ncc2c(n1)n(C1CCOCC1)c(=O)n2C [AZD7648] (first compound max 1 µM, 7x7, partner max 10 µM) , and I need its recorded combination Emax.
stdout: 0.229

stdin: Which combination Emax value is on record for Cn1cnc2c(F)c(Nc3ccc(Br)cc3Cl)c(C(=O)NOCCO)cc21 [Selumetinib] + CC(C)n1c(=O)n(C)c2cnc3cc(F)c(-c4ccc(OCCCN5CCCCC5)nc4)cc3c21 [AZD1390] (first compound max 10 µM, 7x7, partner max 0.3 µM) ?
stdout: 0.664

stdin: Param item = Cc1cc2ncnn2cc1Nc1ncc2c(n1)n(C1CCOCC1)c(=O)n2C [AZD7648] + C[C@@H]1COCCN1C2=NC(=NC(=C2)C3(CC3)[S@](=N)(=O)C)C4=C5C=CNC5=NC=C4 [AZD6738] (first compound max 10 µM, 7x7, partner max 10 µM) ; retrieve measured combination Emax.
stdout: 0.723

stdin: Fill blank: measured combination Emax of the compound COc1nnc2ccc(N3CCC(c4ccc(OCCN5CCN(C)C(=O)[C@H]5C)cc4)CC3)nn12 [AZD5153] + Cc1c2c(nn1C)CSCc1cc(n(C)n1)CSc1cc(c3ccccc3c1)OCCCc1c(C(=O)O)n(C)c3c-2c(Cl)ccc13 [AZD5991] (first compound max 1 µM, 7x7, partner max 1 µM) is ____.
stdout: 0.716

stdin: // combination Emax lookup, key: Cn1cnc2c(F)c(Nc3ccc(Br)cc3Cl)c(C(=O)NOCCO)cc21 [Selumetinib] + C=CCn1c(=O)c2cnc(Nc3ccc(N4CCN(C)CC4)cc3)nc2n1-c1cccc(C(C)(C)O)n1 [AZD1775] (first compound max 10 µM, partner max 1 µM)
stdout: 0.785

stdin: Fill in: combination Emax of COc1nnc2ccc(N3CCC(c4ccc(OCCN5CCN(C)C(=O)[C@H]5C)cc4)CC3)nn12 [AZD5153] + CCN(CCO)CCCOc1ccc2c(Nc3cc(CC(=O)Nc4cccc(F)c4)[nH]n3)ncnc2c1 [AZD2811] (first compound max 1 µM, 7x7, partner max 1 µM) is ___
stdout: 0.759

---

Test system: SLVL (B-Cell Non-Hodgkin's Lymphoma);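 note: after 72 h of two-drug dosing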
METHOD_DESCRIPTION: Bliss excess, mean over the matrix (fraction); higher = more synergy
MEASURED_PROPERTY: Bliss excess
Number only, please.

stdin: Look up Bliss excess for this compound: C[C@@H](Nc1cc(F)cc(F)c1)c1cc(C(=O)N(C)C)cc2c(=O)cc(N3CCOCC3)oc12 [AZD8186] + C1CN(CCC1(C(=O)N[C@@H](CCO)C2=CC=C(C=C2)Cl)N)C3=NC=NC4=C3C=CN4 [AZD5363] (first compound max 10 µM, 7x7, partner max 10 µM)
stdout: 0.0553

stdin: I'd like to know its Bliss excess. The compound in question is Cn1cnc2c(F)c(Nc3ccc(Br)cc3Cl)c(C(=O)NOCCO)cc21 [Selumetinib] + C[C@@H]1COCCN1C2=NC(=NC(=C2)C3(CC3)[S@](=N)(=O)C)C4=C5C=CNC5=NC=C4 [AZD6738] (first compound max 10 µM, 7x7, partner max 10 µM)
stdout: -0.107

stdin: Give its Bliss excess value. Item: Cc1c2c(nn1C)CSCc1cc(n(C)n1)CSc1cc(c3ccccc3c1)OCCCc1c(C(=O)O)n(C)c3c-2c(Cl)ccc13 [AZD5991] + Cn1cnc2c(F)c(Nc3ccc(Br)cc3Cl)c(C(=O)NOCCO)cc21 [Selumetinib] (first compound max 1 µM, 7x7, partner max 3 µM)
stdout: 0.0516

stdin: Please give the measured Bliss excess for this compound: C[C@@H](Oc1cc(-c2cnn(C3CCNCC3)c2)cnc1N)c1c(Cl)ccc(F)c1Cl [Crizotinib] + Cn1cnc2c(F)c(Nc3ccc(Br)cc3Cl)c(C(=O)NOCCO)cc21 [Selumetinib] (first compound max 10 µM, 7x7, partner max 10 µM)
stdout: -0.0414

stdin: Which Bliss excess value belongs to NC1(C(=O)N[C@@H](CCO)c2ccc(Cl)cc2)CCN(c2ncnc3[nH]ccc23)CC1 [Capivasertib] + C[C@@H]1COCCN1C2=NC(=NC(=C2)C3(CC3)[S@](=N)(=O)C)C4=C5C=CNC5=NC=C4 [AZD6738] (first compound max 10 µM, 7x7, partner max 10 µM) ?
stdout: -0.0936

stdin: Could you tell me which Bliss excess is on file for COc1cccc(OCCCN)c1-c1cc(Nc2cnc(C#N)cn2)n[nH]1 [Prexasertib] + C=CCn1c(=O)c2cnc(Nc3ccc(N4CCN(C)CC4)cc3)nc2n1-c1cccc(C(C)(C)O)n1 [AZD1775] (first compound max 1 µM, partner max 1 µM) ?
stdout: 0.0481

stdin: What does the data say about its Bliss excess? Entry: CC1(C)CCC(CN2CCN(c3ccc(C(=O)NS(=O)(=O)c4ccc(NCC5CCOCC5)c([N+](=O)[O-])c4)c(Oc4cnc5[nH]ccc5c4)c3)CC2)=C(c2ccc(Cl)cc2)C1 [Venetoclax] + Cn1cnc2c(F)c(Nc3ccc(Br)cc3Cl)c(C(=O)NOCCO)cc21 [Selumetinib] (first compound max 1 µM, 7x7, partner max 3 µM)
stdout: 0.0299

---

Test system: PA-TU-8902 (Pancreatic Carcinoma)
METHOD_DESCRIPTION: combination Emax (second highest fraction inhibited in the dose matrix, 72 h); higher = more inhibition; extreme values may be limits of the assay
MEASURED_PROPERTY: combination Emax
Would you mind answering with just the numeric figure?

stdin: Which measured combination Emax value corresponds to Cc1c2c(nn1C)CSCc1cc(n(C)n1)CSc1cc(c3ccccc3c1)OCCCc1c(C(=O)O)n(C)c3c-2c(Cl)ccc13 [AZD5991] + C[C@@H]1COCCN1C2=NC(=NC(=C2)C3(CC3)[S@](=N)(=O)C)C4=C5C=CNC5=NC=C4 [AZD6738] (first compound max 1 µM, 7x7, partner max 10 µM) ?
stdout: 0.26

stdin: Returns the measured combination Emax for the input molecule. Input: CC(=O)Nc1cccc(-n2c(=O)n(C3CC3)c(=O)c3c(Nc4ccc(I)cc4F)n(C)c(=O)c(C)c32)c1 [Trametinib] + Cc1nc(-c2cn3c(n2)-c2ccc(-c4cnn(C(C)(C)C(N)=O)c4)cc2OCC3)n(C(C)C)n1 [Taselisib] (first compound max 1 µM, 7x7, partner max 10 µM)
stdout: 0.724

stdin: // query combination Emax value for entry NC1(C(=O)N[C@@H](CCO)c2ccc(Cl)cc2)CCN(c2ncnc3[nH]ccc23)CC1 [Capivasertib] + CC(=O)c1c(C)c2cnc(Nc3ccc(N4CCNCC4)cn3)nc2n(C2CCCC2)c1=O [Palbociclib] (first compound max 10 µM, 7x7, partner max 10 µM)
stdout: 0.409

stdin: So what does the record say about combination Emax for COc1nnc2ccc(N3CCC(c4ccc(OCCN5CCN(C)C(=O)[C@H]5C)cc4)CC3)nn12 [AZD5153] + CC1(C)CCC(CN2CCN(c3ccc(C(=O)NS(=O)(=O)c4ccc(NCC5CCOCC5)c([N+](=O)[O-])c4)c(Oc4cnc5[nH]ccc5c4)c3)CC2)=C(c2ccc(Cl)cc2)C1 [Venetoclax] (first compound max 1 µM, 7x7, partner max 1 µM) ?
stdout: 0.275

stdin: Requested read-out: combination Emax. Entry: CC1(C)CCC(CN2CCN(c3ccc(C(=O)NS(=O)(=O)c4ccc(NCC5CCOCC5)c([N+](=O)[O-])c4)c(Oc4cnc5[nH]ccc5c4)c3)CC2)=C(c2ccc(Cl)cc2)C1 [Venetoclax] + COc1cc(Nc2ncc3c(n2)-c2ccc(Cl)cc2C(c2c(F)cccc2OC)=NC3)ccc1C(=O)O [Alisertib] (first compound max 1 µM, 7x7, partner max 10 µM)
stdout: 0.394

stdin: For the molecule shown here, Cn1cnc2c(F)c(Nc3ccc(Br)cc3Cl)c(C(=O)NOCCO)cc21 [Selumetinib] + CCN(CCO)CCCOc1ccc2c(Nc3cc(CC(=O)Nc4cccc(F)c4)[nH]n3)ncnc2c1 [AZD2811] (first compound max 10 µM, 7x7, partner max 1 µM) , give the reported combination Emax.
stdout: 0.445

stdin: Quick one: combination Emax of Cc1cc2ncnn2cc1Nc1ncc2c(n1)n(C1CCOCC1)c(=O)n2C [AZD7648] + CCN(CCO)CCCOc1ccc2c(Nc3cc(CC(=O)Nc4cccc(F)c4)[nH]n3)ncnc2c1 [AZD2811] (first compound max 10 µM, 7x7, partner max 1 µM) ?
stdout: 0.309
